Source of measurements: patent US20230286973A1

experiment: Liver Microsome Stability Assay (rat); settings: rat liver microsomes, with NADPH, 1.0 uM compound
Measurement Label: Liver Microsome Stability (Multiple Species): Rat - % Remaining after 30 min w/NADPH (%)

# count of solved cases: 5
CN1CCC(Oc2ccc(N3CCC[C@@H]3c3csc(NC(=O)c4cccn4Cc4ccncc4)n3)cc2)CC1 [Compound A8]	11
CC(C#N)CCn1cccc1C(=O)Nc1nc([C@H]2CCCN2c2ccccc2)cs1 (stereo partly shown) [Compound C89]	5.16
CC(=O)N1CCC(Oc2ccc(N3CCC[C@@H]3c3csc(NC(=O)c4cc(C)cn4Cc4ccnc(F)c4)n3)cc2)CC1 [Compound A165]	59.2
Cc1cnccc1Cn1cccc1C(=O)Nc1nc([C@H]2CCCN2c2ccccc2)cs1 [Compound A53]	0.63
O=C(Nc1nc([C@H]2CCCN2c2ccc(OC3CCN(C(=O)C(F)(F)F)CC3)cc2)cs1)c1cccn1Cc1ccnc(F)c1 [Compound A92]	43.6

A. O=C(Nc1nc([C@H]2CCCN2c2ccc(OC3=CCNCC3)cc2)cs1)c1cccn1Cc1ccnc(F)c1 [Compound A89]
B. CC(C)n1cnc(/C=C/c2csc(NC(=O)c3cccn3Cc3cccnc3)n2)c1 [Compound B63]
Recorded Liver Microsome Stability (Multiple Species): Rat - % Remaining after 30 min w/NADPH values differ for A and B ; which one is higher? Refer to your chosen item by its label in the answer.
A
(A: 56.9%, B: 1.14%)
